Reference source: the supplement of paper PMC7877785

assay: self-splicing fitness, log relative to wild type (ln ratio); higher = more splicing; Tetrahymena group I intron in knt gene, E. coli kanamycin selection, DiMSum; sequences stand for … in CUCUCU…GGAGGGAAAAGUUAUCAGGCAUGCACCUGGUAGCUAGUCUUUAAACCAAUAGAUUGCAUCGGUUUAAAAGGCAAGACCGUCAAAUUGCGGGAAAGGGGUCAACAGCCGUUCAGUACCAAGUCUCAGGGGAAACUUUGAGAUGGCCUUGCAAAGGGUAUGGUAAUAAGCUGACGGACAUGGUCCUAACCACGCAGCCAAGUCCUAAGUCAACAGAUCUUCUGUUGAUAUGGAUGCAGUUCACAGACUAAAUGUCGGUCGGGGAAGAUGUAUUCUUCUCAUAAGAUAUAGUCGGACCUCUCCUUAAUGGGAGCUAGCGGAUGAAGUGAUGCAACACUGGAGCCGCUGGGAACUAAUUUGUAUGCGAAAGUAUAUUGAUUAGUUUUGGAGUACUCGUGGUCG; settings: 30 °C;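 further: selection with 25 µg/mL kanamycin versus none on LB agar overnight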
// reported self-splicing fitness (ln) per item
No unit in the answer, only the number.

Solved cases (2 shown):
>>> recorded_measurement("GACCAGCAAUAUUACGAAAU")
-1.34
>>> recorded_measurement("ACUCAGCAAUAUUACGAAGC")
-1.99

For this sequence ( `GCAAAGCAAUAUUACGAAGU` ), measured self-splicing fitness (ln) is -3.24

Reported self-splicing fitness (ln) for `GGAAAGCAAUAUUACGGUUA` was -1.33

Entry `UCUGAGCAAUAUUACGUUGC` ; self-splicing fitness (ln) = -3.64

// `UAGAAGCAAUAUUACGGGCU` : self-splicing fitness (ln) value = -3.1

Recorded result, `AUUAAGCAAUAUUACGUACA` , self-splicing fitness (ln): -1.2

The sequence identified as `AACGAGCAAUAUUACGUCAU` registered its self-splicing fitness (ln) at -2.98

sequence `AGACAGCAAUAUUACGAGUA` , self-splicing fitness (ln) observed: -3.42

Recorded result, `GACUAGCAAUAUUACGCAUU` , self-splicing fitness (ln): -2.42

So, `UUGGAGCAAUAUUACGCUGG` ? Its self-splicing fitness (ln) was -1.62

Field self-splicing fitness (ln) (entry `GUGAAGCAAUAUUACGUUUG` ) reads -2.25

Documented self-splicing fitness (ln) of `ACAGAGCAAUAUUACGCUAC` : -3.21

Value of measured self-splicing fitness (ln) for the entry `ACCUAGCAAUAUUACGGAGC` : -2.67

For `AUGGAGCAAUAUUACGAUUU` the sequence record lists self-splicing fitness (ln) as -1.08

Value of measured self-splicing fitness (ln) for the entry `GCGUAGCAAUAUUACGGCUA` : -1.92

Briefly, self-splicing fitness (ln) measured for `GGGUAGCAAUAUUACGGAUC` : 0.0263

So, `AGCCAGCAAUAUUACGCCUA` ? Its self-splicing fitness (ln) was -2.14

// recorded self-splicing fitness (ln) for `ACUCAGCAAUAUUACGUUGG` : -3.63

For `UUUAAGCAAUAUUACGCCAG` the sequence record lists self-splicing fitness (ln) as -1.08

###

test: self-splicing fitness, log relative to wild type (ln ratio); higher = more splicing; Tetrahymena group I intron in knt gene, E. coli kanamycin selection, DiMSum; sequences stand for … in CUCUCU…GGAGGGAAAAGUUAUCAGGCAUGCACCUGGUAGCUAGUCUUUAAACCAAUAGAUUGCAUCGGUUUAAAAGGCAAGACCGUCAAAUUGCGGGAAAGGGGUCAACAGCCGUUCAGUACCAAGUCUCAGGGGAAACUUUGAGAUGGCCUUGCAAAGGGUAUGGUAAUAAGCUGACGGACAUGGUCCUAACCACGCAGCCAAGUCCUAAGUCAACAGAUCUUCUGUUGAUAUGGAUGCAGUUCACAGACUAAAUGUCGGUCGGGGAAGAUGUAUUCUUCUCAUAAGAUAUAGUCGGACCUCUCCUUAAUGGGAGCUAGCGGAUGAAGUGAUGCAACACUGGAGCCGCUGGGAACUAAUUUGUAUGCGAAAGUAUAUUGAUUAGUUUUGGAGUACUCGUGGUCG; conditions: 37 °C
Property Measured: self-splicing fitness (ln)
Lab note: jot down the number only; don't add units.

For record `CACCAGCAAUAUUACGCACG` the listed self-splicing fitness (ln) is 0.0962

Record summary for `GAAGAGCAAUAUUACGUACC` : reported self-splicing fitness (ln) = -1.49

`CGUAAGCAAUAUUACGUUUG` has a reported self-splicing fitness (ln) of -0.438

Recorded result, `CGGUAGCAAUAUUACGAGAA` , self-splicing fitness (ln): -1.85

Recorded self-splicing fitness (ln) (sequence `AUGUAGCAAUAUUACGAGUU` ): -0.948

Reported self-splicing fitness (ln) ( `AGGAAGCAAUAUUACGUACA` ) = -0.404

Given item `UUGCAGCAAUAUUACGGUGA` , the value recorded as its self-splicing fitness (ln) is 0.0799

###

assay: self-splicing fitness, log relative to wild type (ln ratio); higher = more splicing; Tetrahymena group I intron in knt gene, E. coli kanamycin selection, DiMSum; sequences stand for … in CUCUCU…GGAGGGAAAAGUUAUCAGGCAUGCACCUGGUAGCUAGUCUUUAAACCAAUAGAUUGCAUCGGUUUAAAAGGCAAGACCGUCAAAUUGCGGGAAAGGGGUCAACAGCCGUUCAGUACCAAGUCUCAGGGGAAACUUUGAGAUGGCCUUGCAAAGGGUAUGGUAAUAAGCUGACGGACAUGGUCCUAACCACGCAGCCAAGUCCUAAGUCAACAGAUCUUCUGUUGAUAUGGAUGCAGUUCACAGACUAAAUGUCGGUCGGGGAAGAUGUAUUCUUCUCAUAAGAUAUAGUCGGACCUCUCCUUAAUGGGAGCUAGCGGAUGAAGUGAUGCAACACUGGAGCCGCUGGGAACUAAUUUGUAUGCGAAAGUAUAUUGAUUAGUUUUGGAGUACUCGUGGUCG; conditions: 37 °C
Property Measured: self-splicing fitness (ln)
Answer as a number with no unit attached.

>>> recorded_measurement("GCACAGCAAUAUUACGGUAG")
-1.98

For record `CGUAAGCAAUAUUACGAGAU` the listed self-splicing fitness (ln) is -2.55

Entry `CACCAGCAAUAUUACGGGUC` — recorded self-splicing fitness (ln) = -2.17

The recorded self-splicing fitness (ln) for `UAACAGCAAUAUUACGUACU` is -0.454

Consider `CACCAGCAAUAUUACGACUU` . Its measured self-splicing fitness (ln) is -2.69

// recorded self-splicing fitness (ln) for `AUGUAGCAAUAUUACGAUGG` : -2.26

Data point: `UGCAAGCAAUAUUACGAUUG` ; self-splicing fitness (ln) = -1.55

###

assay: self-splicing fitness, log relative to wild type (ln ratio); higher = more splicing; Tetrahymena group I intron in knt gene, E. coli kanamycin selection, DiMSum; sequences stand for … in CUCUCU…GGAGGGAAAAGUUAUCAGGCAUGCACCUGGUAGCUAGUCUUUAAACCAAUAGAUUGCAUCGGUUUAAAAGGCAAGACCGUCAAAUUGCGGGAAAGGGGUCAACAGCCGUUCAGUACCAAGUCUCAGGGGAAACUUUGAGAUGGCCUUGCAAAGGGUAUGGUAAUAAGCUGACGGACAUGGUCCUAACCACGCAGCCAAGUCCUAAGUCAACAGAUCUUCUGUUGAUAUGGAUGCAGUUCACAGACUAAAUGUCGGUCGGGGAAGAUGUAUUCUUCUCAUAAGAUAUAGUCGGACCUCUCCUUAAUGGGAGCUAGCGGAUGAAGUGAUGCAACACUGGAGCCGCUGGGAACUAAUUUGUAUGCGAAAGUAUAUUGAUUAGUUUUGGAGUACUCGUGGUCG; conditions: 30 °C
We begin with a simple list: items and their reported self-splicing fitness (ln).
Number, no unit, nothing else.

>>> recorded_measurement("CUAAAGCAAUAUUACGGGUU")
-4.13
>>> recorded_measurement("UCGCAGCAAUAUUACGGGGG")
-2.52
>>> recorded_measurement("CCUAAGCAAUAUUACGGGUG")
-2.47
>>> recorded_measurement("UUUCAGCAAUAUUACGAAGC")
-0.935
>>> recorded_measurement("CGACAGCAAUAUUACGCCGA")
-2.36

Entry `UGUUAGCAAUAUUACGCAGG` , self-splicing fitness (ln) reported as -3.96

For `UCUUAGCAAUAUUACGAUUC` the sequence record lists self-splicing fitness (ln) as -2.05

The reported value for `UCGAAGCAAUAUUACGAUUU` in terms of self-splicing fitness (ln) is -4.4

Query `CAUAAGCAAUAUUACGACUA` yields self-splicing fitness (ln) of -1.94

GET /value?item= `UCGCAGCAAUAUUACGGUGG` &field=self-splicing fitness (ln) returns -3.36

Reported self-splicing fitness (ln) ( `AAGCAGCAAUAUUACGGCGA` ) = -0.328

self-splicing fitness (ln) measured on `CUUCAGCAAUAUUACGUCGU` = -4.07

Measured self-splicing fitness (ln), `UCCGAGCAAUAUUACGCGGG` : -3.02

Notebook: `CGGGAGCAAUAUUACGUACA` , self-splicing fitness (ln) read as -3.72

Short answer for `CGGAAGCAAUAUUACGCGGU` : self-splicing fitness (ln) was -3.98
